Data origin, for the record: PubChem BioAssay (NCI)

- protocolNotes: NCI Yeast Anticancer Drug Screen. Data for the bub3 strain (AID 167)
- experimentalContext: S. cerevisiae bub3 mutant strain, at 50.0 µM, hits give high values
This is part of a sample that, as a whole, favours compounds with a hit. Of some 79,000 tested, about 15% had one in any assay.
readoutLabel: growth inhibition (%)
Field: numeric (%). Do not append units.

The cases that follow already have their growth inhibition on record.
[
  {
    "molecule": "CC(=O)Nc1ccc(Cc2ccc(O)cc2)cc1",
    "u": "%",
    "growth inhibition": -3.55
  },
  {
    "molecule": "CCOC(=O)CC1(C)OCCO1",
    "u": "%",
    "growth inhibition": 21.3
  },
  {
    "molecule": "CCc1cc2c(cc1/C(C)=N/N=C(\\C)c1cc3c(cc1CC)C(C)(C)CCC3(C)C)C(C)(C)CCC2(C)C",
    "u": "%",
    "growth inhibition": 9.95
  },
  {
    "molecule": "Nc1nc([O-])c([I+]c2ccccc2)c(=O)[nH]1",
    "u": "%",
    "growth inhibition": 0.15
  },
  {
    "molecule": "O=C1OC(=O)C2(Cl)C3C=CC(C3)C12 (configuration not stated)",
    "u": "%",
    "growth inhibition": -16.3
  }
]

The record that follows has no growth inhibition shown yet.
Q. Any idea what growth inhibition was measured for CCOC(=O)c1cc2cc([N+](=O)[O-])ccc2[nH]1 ?
A. -7.2
